Hello, the source for this data is patent US8378117B2, in case you need it.

target: CB1 receptor (Homo sapiens); construct: expressed in transfected cells; experiment: Binding assay for CB1 agonists or inverse agonists (SK-N-MC membranes, [3H]-CP-55,940); settings: read-out: CB1 receptor binding percent inhibition, test concentration 0.2 μM (footnote 2)
Sequence (P21554 whole entry): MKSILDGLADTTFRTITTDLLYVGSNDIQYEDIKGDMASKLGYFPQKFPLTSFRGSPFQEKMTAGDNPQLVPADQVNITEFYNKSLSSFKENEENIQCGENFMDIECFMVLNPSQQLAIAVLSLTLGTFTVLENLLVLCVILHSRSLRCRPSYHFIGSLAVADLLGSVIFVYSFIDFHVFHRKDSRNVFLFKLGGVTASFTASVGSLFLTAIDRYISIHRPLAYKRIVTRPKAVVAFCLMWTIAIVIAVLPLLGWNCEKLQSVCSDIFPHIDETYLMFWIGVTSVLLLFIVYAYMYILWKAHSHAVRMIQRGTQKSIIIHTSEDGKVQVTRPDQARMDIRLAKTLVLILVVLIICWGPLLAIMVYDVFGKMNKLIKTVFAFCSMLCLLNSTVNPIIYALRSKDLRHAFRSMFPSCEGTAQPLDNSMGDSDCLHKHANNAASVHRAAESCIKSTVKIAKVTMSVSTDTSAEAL
READOUT: inhibition at 0.2 µM (%)
One number for each entry, in %.

Problem: Request the reported inhibition at 0.2 µM associated with O=C(N[C@H](CO)c1ccccc1)c1nn(-c2ccc(F)cc2F)c2c1CCCCC2Cc1cccc(F)c1 (stereo partly drawn)
Solution: 18

Problem: Request the reported inhibition at 0.2 µM associated with `C[C@H](NC(=O)c1nn(-c2ccc(Cl)cc2Cl)c2c1CCCC/C2=C\c1ccc(Cl)cc1)c1ccccc1`
Solution: 72

Problem: Request the reported inhibition at 0.2 µM associated with `C[C@@H](NC(=O)c1nn(-c2cc(Cl)ccc2Cl)c2c1CCCC/C2=C\c1ccc(Cl)cc1)C1CCCCC1`
Solution: 67

Problem: Request the reported inhibition at 0.2 µM associated with C[C@@H](NC(=O)c1nn(-c2ccnc3cc(Cl)ccc23)c2c1CCCCC2Cc1cccc(Cl)c1)c1ccccc1 (stereo partly drawn)
Solution: 4

Problem: Request the reported inhibition at 0.2 µM associated with O=C(N[C@@H](CCl)c1ccccc1)c1nn(-c2nccc(C(F)(F)F)n2)c2c1CCCCC2Cc1cccc(Cl)c1 (stereo partly drawn)
Solution: 29

Provide inhibition at 0.2 µM for all items below, preserving their order.
1. O=C(N[C@H](CCl)c1ccccc1)c1nn(-c2ccc(F)cc2F)c2c1CCCCC2Cc1cccc(F)c1 (stereo partly drawn)
2. COC(=O)[C@@H](Cc1ccc(F)cc1)NC(=O)c1n[nH]c2c1CCCC/C2=C\c1ccc(Cl)cc1
3. CC(C)[C@@H](CO)NC(=O)c1nn(-c2ccc(Cl)cc2Cl)c2c1CCCC[C@H]2Cc1cccc(Cl)c1
4. Cn1nc(C(=O)n2ccnc2)c2c1/C(=C/c1cccc(F)c1)CCCC2
5. O=C(NN1CCCCC1)c1nn(-c2ccccc2Cl)c2c1CCCC/C2=C\c1ccc(Cl)cc1
6. O=C(N[C@@H](CCl)Cc1ccccc1)c1nn(-c2nccc(C(F)(F)F)n2)c2c1CCCCC2Cc1cccc(Cl)c1 (stereo partly drawn)
7. COc1ccc(/C=C2\CCCCc3c(C(=O)NN4CC5CCCC5C4)nn(-c4ccc(Cl)cc4Cl)c32)cc1 (stereo not drawn)
8. COc1ccc(/C=C2\CCCCc3c(C(=O)NN4CCCCC4)nn(-c4ccc(Cl)cc4Cl)c32)cc1

Solution:
1: 24; 2: 91; 3: 40; 4: 0; 5: 43; 6: 12; 7: 72; 8: 75

Provide inhibition at 0.2 µM for all items below, preserving their order.
1. NS(=O)(=O)c1ccc(NC(=O)c2nn(-c3ccc(Cl)cc3Cl)c3c2CCCC/C3=C\c2ccc(Cl)cc2)cc1
2. O=C(NN1CCOCC1)c1nn(-c2cc(Cl)ccc2Cl)c2c1CCCC/C2=C\c1ccc(Cl)cc1

Solution:
[33, 15]
